Read-out: Macrophage colony-stimulating factor (MCSF), CSF1 (gene 1435)
Assay: BSK_CASM3C_MCSF: BioMAP Diversity Plus: CASM3C Assay for Macrophage colony-stimulating factor (MCSF) Biomarker Activity (AID 2283044);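 further: M-CSF protein amount quantified by ELISA after 24 h exposure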
Details: primary human coronary artery smooth muscle cells; actives raise or lower the signal
Activity calls are given as the source filed them. How the source made its calls: active means hit-call score of the fitted dose curve at least 0.9, where 1 is the maximum; inactive means score below 0.9.
Hello, when you answer, please use one of the following outcomes: y for active, n for inactive

Solved entries (count: 2):
- compound: "CCCCNC(=O)n1c(NC(=O)OC)nc2ccccc21"
  group: "n"
- compound: "O=C(O)COc1nc(Cl)c(Cl)cc1Cl"
  group: "n"

input: # lookup: test call for Fc1ccc(Oc2ccnc3cc(Cl)cc(Cl)c23)cc1
output: n

input: Would you mind telling me which call this test gave CCc1nn(C)c(C(=O)NCc2ccc(C(C)(C)C)cc2)c1Cl ?
output: n
